- System: Staphylococcus aureus ATCC 29213
- Type: cell-based
- Condition label: ATCC 29213, 24 h
Exercise: for every item that follows, state its recorded Minimum Inhibitory Concentration (MIC) S. aureus ATCC 29213.
Put down the number, then write its unit next to it.

Inquiry: Bench note: what Minimum Inhibitory Concentration (MIC) S. aureus ATCC 29213 did `CC[C@H](C)[C@H](NC(=O)[C@@H](Cc1ccccc1)N=C(N(C)C)N(C)C)C(=O)N[C@@H](CO)C(=O)N[C@H](CCC(N)=O)C(=O)N[C@@H](C(=O)N[C@H](C(=O)N[C@@H](CO)C(=O)N[C@H]1C(=O)N[C@@H](C)C(=O)N[C@@H](CCCNC(=N)N)C(=O)N[C@@H]([C@@H](C)CC)C(=O)O[C@H]1C)[C@@H](C)CC)[C@@H](C)CC` show?
Reply text: 256 µg/mL

Inquiry: Bench note: what Minimum Inhibitory Concentration (MIC) S. aureus ATCC 29213 did `CC[C@H](C)[C@H](NC(=O)[C@@H](Cc1ccccc1)NC)C(=O)N[C@@H](CO)C(=O)N[C@H](CCC(N)=O)C(=O)N[C@@H](C(=O)N[C@H](C(=O)N[C@@H](CO)C(=O)N[C@H]1C(=O)N[C@@H](C)C(=O)N[C@@H](CCCNC(=N)N)C(=O)N[C@@H]([C@@H](C)CC)C(=O)O[C@H]1C)[C@@H](C)CC)[C@@H](C)CC` show?
Reply text: 2 µg/mL

Inquiry: Bench note: what Minimum Inhibitory Concentration (MIC) S. aureus ATCC 29213 did `CC[C@H](C)[C@H](NC(=O)[C@H](N)Cc1ccccc1)C(=O)N[C@@H](CO)C(=O)N[C@H](CCC(N)=O)C(=O)N[C@@H](C(=O)N[C@H](C(=O)N[C@@H](CO)C(=O)N[C@H]1C(=O)N[C@@H](C)C(=O)N[C@@H](CCCNC(=N)N)C(=O)N[C@@H]([C@@H](C)CC)C(=O)O[C@H]1C)[C@@H](C)CC)[C@@H](C)CC` show?
Reply text: 2 µg/mL

Inquiry: Bench note: what Minimum Inhibitory Concentration (MIC) S. aureus ATCC 29213 did `CC[C@H](C)[C@H](NC(=O)[C@@H](Cc1ccccc1)N(C)C)C(=O)N[C@@H](CO)C(=O)N[C@H](CCC(N)=O)C(=O)N[C@@H](C(=O)N[C@H](C(=O)N[C@@H](CO)C(=O)N[C@H]1C(=O)N[C@@H](C)C(=O)N[C@@H](CCCNC(=N)N)C(=O)N[C@@H]([C@@H](C)CC)C(=O)O[C@H]1C)[C@@H](C)CC)[C@@H](C)CC` show?
Reply text: 16 µg/mL
